Would you kindly list Inhibition for each of these compounds?
System: Plasmodium falciparum
MEASUREMENT DESCRIPTION: GSK_TCMDC: Inhibition of Plasmodium falciparum 3D7 in whole red blood cells, using parasite LDH activity as an index of growth. Test compounds present at 2uM
Format: functional
Numbers only, in %.

Quick one: give me Inhibition for each item below, same order please.
1. CCCc1cc(NCC)nc(Nc2ccc(C)cc2)n1
2. O=C(NCCCc1ccccc1)c1csc(C2CCCN(C(=O)c3ccc(O)c(-c4ccccc4)c3)C2)n1 (centres undefined)
3. O=C(NCCCCN1CCC(c2ccc3c(c2OCCCO)CCCC3)CC1)c1ccc(-c2ccc(C(F)(F)F)cc2)cc1
4. Cc1ccc(NC(=O)NC2CCN(CCCCCNC(=O)/C=C/c3ccc(Cl)c(Cl)c3)CC2)cc1C
5. CCc1ccc(C(=O)NC(=O)c2ccccc2O)cc1
6. Cc1ccc(C(c2nnnn2C2CCCC2)N(Cc2ccco2)Cc2ccccc2Cl)cc1 (centres undefined)
7. COCCN1CCN(Cc2ccc(-c3ccc(-c4nc5cc(F)ccc5[nH]4)cc3)cc2)CC1.O=C(O)C(F)(F)F

95
97
83
100
95
85
100

Please give Inhibition, item by item, for the list that follows.
1. COc1ccc(/C=C/C(=O)N2CCc3cc4nccc(N5CCN6CCC[C@H]6C5)c4cc32)cc1
2. CCNc1cc(C(=O)N[C@@H](Cc2cccc(F)c2)[C@H](O)CNC(C)CCCC(C)C)cc(N2CCCCS2(=O)=O)c1.Cl (some centres undefined)

[100, 98]

====

Test system: Plasmodium falciparum
MEASUREMENT DESCRIPTION: GSK_TCMDC: Inhibition of Plasmodium falciparum 3D7 in whole red blood cells, using parasite LDH activity as an index of growth. Test compounds present at 2uM
Format: functional
Would you kindly list Inhibition for each of these molecules?
Numbers only, in %.

Hey, quick one: what's Inhibition for each of these?
1. O=C(Nc1ccccc1)N(Cc1ccc(-c2cccc(CNC3CCCC3)c2)cc1)C1CCN(Cc2ccccc2)CC1.O=C(O)C(F)(F)F
2. Cl.Nc1c(C(=O)NCCCCN2CCN(c3nsc4ccccc34)CC2)sc2ccccc12
3. COc1ccc2nccc([C@@H](O)CN3CCC(NC(=O)/C=C/c4c[nH]c5c(C)cccc45)CC3)c2c1
4. NC(=O)C1CCN(Cc2ccc(-c3ccc(-c4nc5cc(F)ccc5[nH]4)cc3)cc2)CC1.O=C(O)C(F)(F)F
5. CC(C)CCn1c(Sc2ccc(C#N)c([N+](=O)[O-])c2)nnc1-c1ccc(N(C)C)cc1
6. Cl.O=[N+]([O-])c1cccc(-c2nc3cc(C4=NC5CCCCC5N4)ccc3[nH]2)c1 (stereo not drawn)
7. CCCc1cc(C(=O)N[C@@H](Cc2ccccc2)[C@H](O)CNC(C)C)c(F)c(N2CCCC2=O)c1
8. Cl.N#Cc1ccc2c(c1)CCN(CCC1CCC(NC(=O)/C=C/c3ccc(F)c4ccccc34)CC1)CC2 (stereo not drawn)

[100, 86, 100, 100, 97, 100, 90, 95]

====

Field: Inhibition. Provide a value for each of the compounds that follow.
Tested on: HepG2
MEASUREMENT DESCRIPTION: GSK_TCMDC: Percent inhibition of human HepG2 cell line. Test compounds present at 10uM.
Assay type: functional
Numbers only, in %.

Here is how some compounds turned out for Inhibition.
- Cc1cc2nc(-c3ccc(C(=O)NCCCc4ccccc4)cc3)[nH]c2cc1C: 7
- CC(Nc1ccc2c(c1)CCC2)C(=O)Nc1cc(C(F)(F)F)ccc1N1CCOCC1 (stereo not drawn): 0
- Cl.Ic1cc(Nc2ncnc3ccsc23)ccc1OCc1ccccc1: 22
- C=C(C)CSc1nc2c(c(=O)n1Cc1ccco1)C1(CCCCC1)Cc1ccccc1-2: 2
- COc1ccccc1Nc1nc(NC2CCN(C)CC2)cc(-c2cccc(C(F)(F)F)c2)n1.O=C(O)C(F)(F)F: 100
- COc1cc(-c2ccc(-c3cnc(N)nc3OC)[nH]2)cc(OC)c1OC: 0

The following compounds each have a reported value; give each one's Inhibition.
1. Cc1ccccc1C1CCN(C2CCC(NC(=O)c3ccc(-c4cccs4)s3)CC2)CC1 (stereo not drawn)
2. CCCCCCc1cc2cc(-c3csc(C=Cc4ccccc4)n3)c(=O)oc2cc1O
3. CCCCn1c(-c2ccco2)nc2c(c(=O)c3ccccc3n2C)c1=O

58
17
11

Take each entry in turn and give its Inhibition.
1. CCNc1cc(C(=O)N[C@@H](Cc2ccccc2)[C@H](O)CNC(C)(C)CC(C)(C)C)c(F)c(N2CCCCS2(=O)=O)c1
2. CCCCCN(C(=O)Nc1cc(C(F)(F)F)cc(C(F)(F)F)c1)C(C)c1nc2ccccc2c(=O)n1CC (stereo not drawn)

1. 8
2. 0

Record Inhibition for all entries; do not skip any.
1. Br.CCCC1N=C(N)N=C(N)N1c1ccc(CC)cc1 (stereo not drawn)
2. N#CN1CC[C@H](CS(=O)(=O)c2cccc(Br)c2)C1
3. Cc1ccc(F)c(NC(=O)c2c(-c3c(F)cccc3Cl)noc2C)c1
4. CCc1cc(I)c2c(c1)C(NCCCNc1cc(=O)c3ccccc3[nH]1)CCN2.CS(=O)(=O)O (stereo not drawn)
5. O=C(/C=C/c1ccc(Cl)c(Cl)c1)NCCCCCN1CCC(NC(=O)Nc2cc(Cl)nc(Cl)c2)CC1
6. CC(=O)Nc1cccc(C(=O)Nc2cccc(-c3ccc(-c4nc5cc(F)ccc5[nH]4)s3)c2)c1
7. COc1cccc(CNCC(C)(C)c2nc(-c3ccc(Cl)c(O)c3)c(-c3ccncc3)[nH]2)c1.Cl
8. O=c1nc2[nH]c3ccccc3n2c(=O)[nH]1

11
8
13
19
4
88
74
21

Each compound below has a reported value. Please supply its Inhibition.
1. c1ccc(Oc2ccc(Nc3ccnc4cc(-c5cccc(CN6CCOCC6)c5)ccc34)cc2)cc1
2. CC(=O)N(C)/N=C/[C@H](CCc1ccccc1)NC(=O)[C@H](CC(C)C)NC(=O)c1cccc(OCCN2CCOCC2)c1
3. CCCc1cc(Cc2cnc(N)nc2N)ccc1OCCCCCC(=O)OCC
4. CCCCN(C)CC#Cc1ccc(-c2ccc3[nH]c(C)c(Br)c(=O)c3c2)cn1
5. O=C(NC(Cc1ccccc1)C(=O)O)c1cc(=O)c2ccccc2o1 (stereo not drawn)
6. CC(C)c1ccc(OCC(O)CN(C)C(C)C(O)c2ccccc2)c(Br)c1.Cl (stereo not drawn)
7. [O-][s+]1nc(NCCCN(Cc2cccs2)c2ccccn2)c(NCc2ccccc2)n1 (stereo not drawn)
8. COc1ccc2nccc([C@@H](O)CN3CCC(NCc4nc5cc(F)c(F)cc5[nH]4)CC3)c2c1.O=C(O)C(=O)O

1: 14; 2: 5; 3: 0; 4: 3; 5: 53; 6: 36; 7: 10; 8: 12
